# credit: patent US11149036B2

Target: human M4 muscarinic acetylcholine receptor (Homo sapiens)
Test: human FLIPR-based M4 PAM assay (CHO-K1 cells with human M4 receptor and Gaqi5, calcium dye fluorescence)
Details: inflection point (IP) of dose response curve, acetylcholine added at 20% of maximum response, read-out: M4 FLIPPR Hu IP
pEC50: −log10 of the molar value.
readoutLabel: pEC50

Worked cases, pEC50 given:
| molecule | systemTested | pEC50 |
| --- | --- | --- |
| Cn1cnc2cc(-c3nc(F)c(F)cc3-c3cnn(CC4(C)CCCC4)c3)cnc21 | human M4 muscarinic acetylcholine receptor (Homo sapiens) | 7.15 |
| COc1cc2ccc(-c3nc(C)ccc3-c3cnn(CC4(C)CCC(F)(F)C4)c3)cc2nn1 (single isomer, unassigned; isomer b) [Example 151] | human M4 muscarinic acetylcholine receptor (Homo sapiens) | 7.52 |
| Cc1ccc(-c2cnn(CC3(F)CCCC3)c2F)c(-c2ccc3c(c2)ncn3C)n1 | human M4 muscarinic acetylcholine receptor (Homo sapiens) | 7.15 |
| Cc1cc(-c2cnn(CC3(F)CCCC3)c2)c(-c2ccn3ncnc3c2)nc1C#N | human M4 muscarinic acetylcholine receptor (Homo sapiens) | 7.15 |
| O=C1c2cc(-c3ncc(F)cc3-c3cnn(CC4(F)CCCC4)c3)ccc2CN1C1CC1 | human M4 muscarinic acetylcholine receptor (Homo sapiens) | 7.16 |

1. N#Cc1ccc(-c2cnn(CC3(F)CCCC3)c2)c(-c2ccn3nc(CO)nc3c2)n1
2. N#Cc1ccc(-c2cnn(CC3(F)CCCC3)c2)c(-c2ccn3c(Br)cnc3c2)n1
Exercise: Param pair: 1 , 2 . Output: the one whose pEC50 is numerically greater. Your choice should be expressed through its label.
Solution: 2

====

Target: human M4 muscarinic acetylcholine receptor (Homo sapiens, UniProt P08173)
Sequence (P08173 1-479): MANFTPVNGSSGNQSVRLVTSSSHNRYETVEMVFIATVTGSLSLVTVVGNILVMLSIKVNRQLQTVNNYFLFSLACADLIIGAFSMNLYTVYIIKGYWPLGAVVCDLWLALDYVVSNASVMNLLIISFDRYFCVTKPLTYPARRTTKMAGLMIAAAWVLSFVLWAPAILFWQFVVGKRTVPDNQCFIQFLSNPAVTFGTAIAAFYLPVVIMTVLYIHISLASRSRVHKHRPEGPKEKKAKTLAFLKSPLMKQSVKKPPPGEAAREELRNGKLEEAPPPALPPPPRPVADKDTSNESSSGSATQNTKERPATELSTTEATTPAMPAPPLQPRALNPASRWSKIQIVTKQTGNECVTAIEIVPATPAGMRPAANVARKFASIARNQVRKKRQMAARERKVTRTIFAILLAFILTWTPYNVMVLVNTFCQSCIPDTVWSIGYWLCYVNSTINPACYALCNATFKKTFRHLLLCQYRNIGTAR
Assay: human FLIPR-based M4 PAM assay (CHO-K1 cells with human M4 receptor and Gaqi5, calcium dye fluorescence)
Conditions: inflection point (IP) of dose response curve, acetylcholine added at 20% of maximum response, read-out: M4 FLIPPR Hu IP
Experimental: In a typical experiment the M4 muscarinic acetylcholine receptor modulating activity of the compounds of the present invention was determined in accordance with the following experimental method. […] Following dye loading the cell plates are placed in a FLIPR Tetra instrument and while monitoring dye fluorescence (excitation 470-495 […]), 10 uL of test substance at increasing concentrations is added, and fluorescence values are recorded for 4 min. […]
pEC50: −log10 of the molar value.
readoutLabel: pEC50

| compound | pEC50 |
| --- | --- |
| COc1cc2ccc(-c3nc(C)ccc3-c3cnn(CC4CC5C(C4)C5(F)F)c3)cc2nn1 (stereo not shown) [Example 37] | 7.29 |
| Cc1ccc(-c2cnn(CC3(F)CCCC3)c2)c(-c2ccc3c(c2)C(=O)N(CC2CC2)C3)n1 [Example 19] | 7.70 |
| Cn1c(Cl)nc2cc(-c3nc(C#N)ccc3-c3cnn(CC4(C)CCCC4)c3)ccc21 [Example 154] | 7.36 |

1. FC(F)Oc1ccc(-c2cnn(CC3CCCC3)c2)c(-c2ccc3cccnc3c2)n1 [Example 166]
2. c1cnc(-c2ccc3cccnc3c2)c(-c2cnn(CC3CCCC3)c2)c1 [Example 147]
Exercise: Param pair: 1 , 2 . Output: the one whose pEC50 is numerically greater. Your choice should be expressed through its label.
Solution: 1
(1: 7.59, 2: 7.30)

====

Target: human M4 muscarinic acetylcholine receptor (Homo sapiens, UniProt P08173)
Experiment: human FLIPR-based M4 PAM assay (CHO-K1 cells with human M4 receptor and Gaqi5, calcium dye fluorescence)
Details: inflection point (IP) of dose response curve, acetylcholine added at 20% of maximum response, read-out: M4 FLIPPR Hu IP
pEC50: −log10 of the molar value.
readoutLabel: pEC50

| compound | readoutLabel | observedResult |
| --- | --- | --- |
| FC(F)c1cn2ccc(-c3ncc(Cl)cc3-c3cnn(CC4(F)CCCC4)c3)cc2n1 [Example 111] | pEC50 | 7.42 |

I. Cc1cn2ccc(-c3nc(C#N)ccc3-c3cnn(CC4C[C@@H](F)[C@H](F)C4)c3)cc2n1 [Example 83]
II. CC1(Cn2cc(-c3ccc(C#N)nc3-c3ccc4cc(CF)nnc4c3)cn2)CCCC1 [Example 164]
Exercise: Param pair: I , II . Output: the one whose pEC50 is numerically greater. Your choice should be expressed through its label.
Solution: I
(I: 7.59, II: 7.07)
